# Test system: AncSZ;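 note: 11-residue human phosphosite peptides and single-mutation variants displayed on the E. coli surface, counted by deep sequencing, each peptide's frequency after selection divided by its frequency in the unselected input library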;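 note: frequency after pTyr selection over input frequency; kinase dosed for 20-30% of maximal phosphorylation in three min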
# test: phosphorylation enrichment, bacterial display (enrichment ratio); higher = better substrate or ligand; peptides without Tyr show the background
Label Not met if phosphorylation enrichment falls below 0.8; label Met in every other case.

Known results for sequences:
* WIPIQYLIISE [NOG_Y222_P223L] | Met
* THEVRYISAGQ [SLCO4A1_Y77_V78I] | Not met
* AGQEKYSAMRD [HRAS_Y64_E63K] | Not met
* VSTAVYKRFAS [BEST1_Y148_P152A] | Not met
* KLIMEYLPFGS [JAK2_Y931_YF] | Met

query: Hi, just wondering whether RGNMFYENSFA [EGFR_Y113_YF] shows phosphorylation enrichment of 0.8 or higher.
result: Met

query: Determine whether measured phosphorylation enrichment meets or exceeds 0.8 for ECKLLYSQKEG [PTPN11_Y263_R265Q]
result: Met

query: Confirm if phosphorylation enrichment reported for the sequence NLNGKYFKPRA [ANGPTL3_Y417_N418Y_YF] is 0.8 or above.
result: Not met

query: Evaluate KSVSQYLEMDK [CAGE1_Y438] : phosphorylation enrichment at minimum 0.8?
result: Not met

query: Reported phosphorylation enrichment reaches at least 0.8 for IGVDSYSVCKR [RPS6KA3_Y433_G431D] ?
result: Not met

query: Please check the record YEREQYADRAR [RBM4_Y355] and state if its phosphorylation enrichment is at or above 0.8.
result: Not met

query: # check: phosphorylation enrichment of GREFIYVDPMQ [PDGFRA_Y574_H570R_YF] is greater than or equal to 0.8
result: Met

query: Given the entry LSIDRYHAIVF [NPSR1_Y147_YF] , answer whether its phosphorylation enrichment meets or surpasses 0.8.
result: Met

query: Evaluate FEKNVYVDKNL [PTCHD3_Y688] : phosphorylation enrichment at minimum 0.8?
result: Not met

query: Evaluate EMTAEYACTRK [ACAD9_Y325] : phosphorylation enrichment at minimum 0.8?
result: Not met

query: Exam item: decide whether the reported phosphorylation enrichment for SVVVPHEPPEV [TP53_Y220_Y220H] is at least 0.8.
result: Not met

query: Say whether LRYDVYGGENE [STOX1_Y610_E608D] shows phosphorylation enrichment of 0.8 or more.
result: Met

query: // inclusive: phosphorylation enrichment at least 0.8? input: GESLTYASTTF [C1orf162_Y120]
result: Not met
